biological target: T1, EDIII-DV2 (Dengue virus serotype 2 (DV2), UniProt P14337 581-673)
T1 construct: also called EDIII of DV2; EDIII-DVII
Below, each entry is listed alongside its reported kon.

[
  {
    "binder": "VH_G27_del (antibody, V domains shown) VH: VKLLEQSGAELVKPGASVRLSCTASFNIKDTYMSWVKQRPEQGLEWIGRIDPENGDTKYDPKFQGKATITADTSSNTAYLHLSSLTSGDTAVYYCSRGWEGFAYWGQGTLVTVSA VL: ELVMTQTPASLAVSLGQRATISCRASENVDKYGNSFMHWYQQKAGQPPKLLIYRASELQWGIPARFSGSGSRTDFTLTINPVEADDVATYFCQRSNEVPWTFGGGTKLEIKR",
    "kon": "2.09e+06 M⁻¹ s⁻¹"
  },
  {
    "binder": "VH_G27P (antibody, V domains shown, also called 4E5-G27P; copies: 2 + 2) VH: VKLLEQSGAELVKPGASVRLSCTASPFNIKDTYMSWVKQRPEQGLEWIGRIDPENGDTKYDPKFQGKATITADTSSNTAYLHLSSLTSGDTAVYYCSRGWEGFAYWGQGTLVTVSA VL: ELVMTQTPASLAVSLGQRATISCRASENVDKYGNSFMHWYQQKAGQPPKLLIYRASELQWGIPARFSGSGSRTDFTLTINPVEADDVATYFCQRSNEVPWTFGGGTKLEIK",
    "kon": "1.99e+06 M⁻¹ s⁻¹"
  },
  {
    "binder": "VH_G27A (antibody, V domains shown) VH: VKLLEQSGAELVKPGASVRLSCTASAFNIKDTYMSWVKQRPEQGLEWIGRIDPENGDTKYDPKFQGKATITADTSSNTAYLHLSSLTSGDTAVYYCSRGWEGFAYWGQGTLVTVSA VL: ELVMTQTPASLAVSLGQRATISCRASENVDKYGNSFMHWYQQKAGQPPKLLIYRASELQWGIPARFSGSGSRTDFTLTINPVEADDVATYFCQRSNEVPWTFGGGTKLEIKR",
    "kon": "2.08e+06 M⁻¹ s⁻¹"
  },
  {
    "binder": "VH_A25_del (antibody, V domains shown, also called 4E5-del-25; copies: 2 + 2) VH: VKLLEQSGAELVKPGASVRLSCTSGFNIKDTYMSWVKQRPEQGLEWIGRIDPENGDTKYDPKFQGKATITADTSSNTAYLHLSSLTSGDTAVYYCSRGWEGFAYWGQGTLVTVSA VL: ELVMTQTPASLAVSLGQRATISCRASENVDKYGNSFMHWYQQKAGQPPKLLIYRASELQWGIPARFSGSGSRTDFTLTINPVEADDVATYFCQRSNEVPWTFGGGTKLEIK",
    "kon": "2.74e+06 M⁻¹ s⁻¹"
  }
]
